inhibition at 10 µM values, listed per item
TARGET_SYSTEM: TNK2 (Homo sapiens)
Construct: purchased DiscoverX (KINOMEscan)
Sequence (Q07912 whole entry): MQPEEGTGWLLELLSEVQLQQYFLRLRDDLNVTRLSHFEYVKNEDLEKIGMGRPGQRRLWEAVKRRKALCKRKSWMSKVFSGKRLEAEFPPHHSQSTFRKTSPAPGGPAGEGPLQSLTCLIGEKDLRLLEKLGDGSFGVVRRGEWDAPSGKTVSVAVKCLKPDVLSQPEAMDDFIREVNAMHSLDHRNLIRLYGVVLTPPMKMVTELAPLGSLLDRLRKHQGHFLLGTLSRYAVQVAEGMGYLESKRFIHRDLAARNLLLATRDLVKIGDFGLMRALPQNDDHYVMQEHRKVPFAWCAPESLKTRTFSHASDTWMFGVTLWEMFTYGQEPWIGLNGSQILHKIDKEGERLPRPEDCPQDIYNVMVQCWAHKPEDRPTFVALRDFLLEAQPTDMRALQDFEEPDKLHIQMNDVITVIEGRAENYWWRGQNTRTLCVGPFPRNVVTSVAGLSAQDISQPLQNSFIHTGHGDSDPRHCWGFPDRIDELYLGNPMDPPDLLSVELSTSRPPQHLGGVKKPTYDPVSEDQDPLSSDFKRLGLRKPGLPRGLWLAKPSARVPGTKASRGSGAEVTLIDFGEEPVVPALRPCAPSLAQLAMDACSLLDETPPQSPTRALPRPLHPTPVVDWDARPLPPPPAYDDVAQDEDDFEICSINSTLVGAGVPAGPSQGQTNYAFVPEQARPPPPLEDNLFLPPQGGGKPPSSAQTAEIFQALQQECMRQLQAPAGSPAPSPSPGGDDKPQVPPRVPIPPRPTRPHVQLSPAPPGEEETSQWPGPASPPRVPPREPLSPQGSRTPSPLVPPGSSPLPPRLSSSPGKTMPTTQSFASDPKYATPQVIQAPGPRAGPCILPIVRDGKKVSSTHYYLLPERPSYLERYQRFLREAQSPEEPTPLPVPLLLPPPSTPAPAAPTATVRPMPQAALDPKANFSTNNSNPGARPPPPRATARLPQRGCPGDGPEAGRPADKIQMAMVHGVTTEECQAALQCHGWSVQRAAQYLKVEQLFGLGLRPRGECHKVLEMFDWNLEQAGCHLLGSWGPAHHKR
EXPERIMENT_NOTES: KINOMEscan competitive binding
RUN_PARAMETERS: n=1, read-out: Percent inhibition, TNK2
Unit % implied. Number only.

{"ENTRY_SMILES": "C[C@@H](Oc1cc(-c2cnc3ccccn23)sc1C(N)=O)c1ccccc1Cl", "TARGET_SYSTEM": "TNK2 (Homo sapiens)", "inhibition at 10 µM [%]": 0}
{"ENTRY_SMILES": "Clc1ccc(Nc2ncc(-c3ccccc3)s2)cc1", "TARGET_SYSTEM": "TNK2 (Homo sapiens)", "inhibition at 10 µM [%]": 0}
{"ENTRY_SMILES": "Fc1cccc(COc2ccc(Nc3ncnc4c3CN(CCN3CCOCC3)CC4)cc2Cl)c1", "TARGET_SYSTEM": "TNK2 (Homo sapiens)", "inhibition at 10 µM [%]": 0}

Bench note, TNK2 (Homo sapiens): `Nc1ncc2c(-c3ccncc3)c[nH]c2n1` , inhibition at 10 µM reads 0

TNK2 (Homo sapiens) assay, molecule `COc1cc(Nc2nccc(-c3sc(N)nc3-c3cccc(NC(=O)c4c(F)cccc4F)c3)n2)cc(OC)c1OC` , recorded inhibition at 10 µM = 100

So the reported inhibition at 10 µM for `COc1ccc(Nc2nccc(-c3cnn4ncccc34)n2)cc1` , on TNK2 (Homo sapiens), turned out to be 78.1

Tested on TNK2 (Homo sapiens): `Cc1ccc(O)cc1Nc1ccnc(Nc2cccc(C(N)=O)c2)n1` . Observed inhibition at 10 µM: 98.8

Tested system TNK2 (Homo sapiens); inhibition at 10 µM recorded for `Cc1ccc(O)cc1N(C)c1ccnc(Nc2cccc(S(N)(=O)=O)c2)n1` was 99.8

The reported inhibition at 10 µM value, TNK2 (Homo sapiens), for `c1ccc(COc2cccc(-c3ccnc4[nH]ccc34)c2)cc1` reads 0

# `CN1CCN(c2ccc(Nc3nccc(-c4cnn5ncccc45)n3)cc2C#N)CC1` with TNK2 (Homo sapiens): inhibition at 10 µM is 73.2

---

TARGET_SYSTEM: panel of 203 kinases (Homo sapiens, UniProt Q8N752)
Construct: purchased DiscoverX (KINOMEscan)
Sequence (Q8N752 whole entry): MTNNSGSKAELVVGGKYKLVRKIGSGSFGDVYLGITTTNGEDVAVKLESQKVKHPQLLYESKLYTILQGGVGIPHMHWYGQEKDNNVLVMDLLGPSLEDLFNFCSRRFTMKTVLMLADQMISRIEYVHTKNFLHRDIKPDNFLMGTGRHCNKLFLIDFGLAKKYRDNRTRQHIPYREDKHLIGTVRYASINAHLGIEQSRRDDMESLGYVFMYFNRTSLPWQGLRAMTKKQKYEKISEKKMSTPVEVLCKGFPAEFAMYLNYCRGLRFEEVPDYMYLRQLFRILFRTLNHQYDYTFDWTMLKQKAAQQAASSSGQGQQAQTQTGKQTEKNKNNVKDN
EXPERIMENT_NOTES: KINOMEscan competitive binding, whole panel
RUN_PARAMETERS: 10 µM, n=1; kinase CSNK1A1L; read-out: Percent inhibition CSNK1A1L
We use 90% as the dividing line for inhibition at 10 µM: on or above the line is 1 (yes), below is 0 (no).

{"ENTRY_SMILES": "Clc1ccc(Nc2ncc(-c3ccccc3)s2)cc1", "CLASS_NAME": "0 (no)"}
{"ENTRY_SMILES": "C[C@@H](Oc1cc(-c2cnc3ccccn23)sc1C(N)=O)c1ccccc1Cl", "CLASS_NAME": "0 (no)"}
{"ENTRY_SMILES": "Nc1ncc2c(-c3ccncc3)c[nH]c2n1", "CLASS_NAME": "0 (no)"}
{"ENTRY_SMILES": "Cc1ccc(O)cc1Nc1ccnc(Nc2cccc(C(N)=O)c2)n1", "CLASS_NAME": "1 (yes)"}
{"ENTRY_SMILES": "COc1cc(Nc2nccc(-c3sc(N)nc3-c3cccc(NC(=O)c4c(F)cccc4F)c3)n2)cc(OC)c1OC", "CLASS_NAME": "0 (no)"}
{"ENTRY_SMILES": "Cc1ccc(O)cc1N(C)c1ccnc(Nc2cccc(S(N)(=O)=O)c2)n1", "CLASS_NAME": "1 (yes)"}
{"ENTRY_SMILES": "Fc1cccc(COc2ccc(Nc3ncnc4c3CN(CCN3CCOCC3)CC4)cc2Cl)c1", "CLASS_NAME": "0 (no)"}
{"ENTRY_SMILES": "c1ccc(COc2cccc(-c3ccnc4[nH]ccc34)c2)cc1", "CLASS_NAME": "0 (no)"}

### Prompt Please check the record `CN1CCN(c2ccc(Nc3nccc(-c4cnn5ncccc45)n3)cc2C#N)CC1` and state if its inhibition at 10 µM is at or above 90%.
### Response 1 (yes)

# credit: paper PMC9927415
